# systemTested: human IGF1R (Homo sapiens, UniProt P08069)
# testDescription: Whole-cell binding competition assay with 125I-IGF-1 on R+ fibroblasts
# Design: expressed in transfected cells; host or cells: murine embryonic fibroblasts from IGF1R knockout mice, stably transfected with IGF1R (R+ cells)
# measurementParameters: competition with 125I-IGF-1, R+ cells; mean ± S.D. (n), n ≥ 3; measurement series #; SD
# Sequence (P08069 31-736): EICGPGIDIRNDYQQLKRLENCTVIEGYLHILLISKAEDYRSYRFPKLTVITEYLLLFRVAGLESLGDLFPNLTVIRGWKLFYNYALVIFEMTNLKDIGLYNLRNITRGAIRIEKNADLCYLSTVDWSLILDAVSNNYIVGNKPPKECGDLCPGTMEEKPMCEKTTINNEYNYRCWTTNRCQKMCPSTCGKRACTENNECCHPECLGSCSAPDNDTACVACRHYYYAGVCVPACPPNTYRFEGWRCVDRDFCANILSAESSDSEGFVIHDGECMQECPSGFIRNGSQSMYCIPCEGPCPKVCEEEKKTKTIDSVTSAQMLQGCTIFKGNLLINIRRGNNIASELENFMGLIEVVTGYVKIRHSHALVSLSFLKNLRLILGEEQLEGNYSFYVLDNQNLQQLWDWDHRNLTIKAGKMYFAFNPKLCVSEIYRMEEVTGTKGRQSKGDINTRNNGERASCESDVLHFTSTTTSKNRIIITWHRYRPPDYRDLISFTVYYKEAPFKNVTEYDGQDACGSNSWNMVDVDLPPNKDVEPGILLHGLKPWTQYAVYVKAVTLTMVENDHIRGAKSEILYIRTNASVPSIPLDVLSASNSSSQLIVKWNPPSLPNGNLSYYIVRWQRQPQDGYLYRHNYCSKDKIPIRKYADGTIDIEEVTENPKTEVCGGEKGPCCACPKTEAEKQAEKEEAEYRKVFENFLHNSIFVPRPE
# Sequence (P08069 741-1367): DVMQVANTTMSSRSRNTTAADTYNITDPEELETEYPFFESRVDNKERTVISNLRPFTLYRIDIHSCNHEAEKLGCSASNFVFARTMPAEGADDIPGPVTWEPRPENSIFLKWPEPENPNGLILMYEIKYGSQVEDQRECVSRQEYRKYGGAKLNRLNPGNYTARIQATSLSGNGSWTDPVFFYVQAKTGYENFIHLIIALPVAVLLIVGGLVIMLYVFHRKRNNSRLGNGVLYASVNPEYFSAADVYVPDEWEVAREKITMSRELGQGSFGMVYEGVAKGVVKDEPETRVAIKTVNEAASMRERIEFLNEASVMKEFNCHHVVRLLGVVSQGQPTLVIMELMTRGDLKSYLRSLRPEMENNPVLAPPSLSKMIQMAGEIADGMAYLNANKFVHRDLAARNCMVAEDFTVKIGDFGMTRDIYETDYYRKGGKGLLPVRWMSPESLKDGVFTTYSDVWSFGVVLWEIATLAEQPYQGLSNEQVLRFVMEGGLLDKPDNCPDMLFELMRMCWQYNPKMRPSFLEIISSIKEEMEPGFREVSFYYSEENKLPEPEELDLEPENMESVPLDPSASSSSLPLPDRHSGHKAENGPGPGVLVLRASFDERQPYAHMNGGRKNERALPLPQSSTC
Bridge positions count the residues as written; N and C are the ends. Ends that are not written are not given here. I, II: the chains in the order shown.
attributeMeasured: pKd
Answers are plain numbers, as −log10 of the molar value.

**Q:** Retrieve pKd measured for I: ILAQTLCGSELVDALELVCGEYGGIYRPPK / II: KIVDVCCTTKGCNYMDLKQYCN (disulfide I:7-II:7, I:19-II:21, II:6-II:12) [dcLCDV-Sa] and print it.
**A:** 6.19

====

# systemTested: human IGF1R (Homo sapiens, UniProt P08069)
# testDescription: cell-based
# Design: expressed in transfected cells; host or cells: HEK293 cells overexpressing human IGF-1R
# Sequence (P08069 741-1367): as the sequence (P08069 741-1367) above
# Sequence (P08069 31-736): as the sequence (P08069 31-736) above
Bridge positions count the residues as written; N and C are the ends. Ends that are not written are not given here. I, II: the chains in the order shown.
attributeMeasured: pEC50
Give bare numbers, as −log10 of the molar value.

**Q:** Retrieve pEC50 measured for I: ILAQTLCGSELVDALELVCGEYGGIYRPPK / II: KIVDVCCTTKGCNYMDLKQYCN (disulfide I:7-II:7, I:19-II:21, II:6-II:12) [dcLCDV-Sa] and print it.
**A:** 6.55
